Tested on: TK-10 renal
Assay: NCI-60 one-dose screen, 48 h (100 = growth as untreated, 0 = no growth, -100 = all killed)
Settings: 10 µM unless noted
This is part of a sample that, as a whole, favours compounds with a hit. Of some 83,000 tested, about 20% had one in any assay.
Entries and their growth
API: value field is a number in %; no unit string.

Below, each entry is followed by its recorded growth result.
1) O=C(Cc1nc2ccc([N+](=O)[O-])cc2nc1CC(=O)c1ccccc1)c1ccccc1 :: 104
2) O=C(O)C(c1ccccc1)C(O)c1ccccc1 (configuration not stated) :: 108

Q. So what's the measured growth for this one? O=C(Nc1ccccc1C(=O)NCC1CC1)c1cccs1
A. 114

Q. Sample Cc1c(O)cccc1O — what was its growth?
A. 104

Q. Entry CC1(C)OC(=O)C(c2ccsc2)C(=O)O1 has what growth?
A. 91.8

Q. Item O=C(CN1CCNCC1)N1CCOCC1 has what recorded growth?
A. 110

Q. growth for CCCCC(CC)COC(C)=O (configuration not stated) ?
A. 102

====

Test system: MDA-MB-231 breast
Test: NCI-60 one-dose screen, 48 h (100 = growth as untreated, 0 = no growth, -100 = all killed)
Conditions: 10 µM
About 83,000 compounds went through this panel and 20% of them were active in at least one assay; those are over-represented in the sample as a whole.
Note to self: values exactly at 90% are 1. So growth at or above 90% is 1, below is -1.

Answered cases to consult:
1) Oc1ccc2c(c1)OCC1(O)Cc3cc(O)c(O)cc3C21 (configuration not stated) :: 1
2) CC(=O)Nc1ccc(NC(C)=O)c2c1C(=O)c1ccccc1C2=O :: -1

Q. Would you say CCCCCCCO shows growth at minimum 90%?
A. 1

Q. Evaluate CC1CCC(C(=O)O)N1 (configuration not stated) : growth at minimum 90%?
A. 1

Q. Does growth meet or surpass 90% for c1ncc2[nH]cnc2n1 ?
A. 1

Q. Reported growth at or above 90%? CCOC(=O)C(O)C(O)C(=O)OCC (configuration not stated)
A. 1

Q. For this compound, is measured growth 90% or higher? NC(N)=Nc1cc2ccccc2c2ccccc12
A. -1

====

Tested on: KM12 colon
Test: NCI-60 one-dose screen, 48 h (100 = growth as untreated, 0 = no growth, -100 = all killed)
Conditions: 10 µM
This is part of a sample that, as a whole, favours compounds with a hit. Of some 83,000 tested, about 20% had one in any assay.
Measured growth values are reported for all entries that follow.
Give just the number in %; leave the unit off.

Examples from the recorded data:
1) O=C1OC(c2ccc(F)cc2)CC1CN1CCOCC1 (stereo unspecified) :: 102
2) CN1C(=O)CN2CCc3ccccc3C2c2cc(Cl)ccc21 (stereo unspecified) :: 106
3) COc1ccccc1NC(=O)C1=C(C)NC(C)=C(C(=O)Nc2ccccc2OC)C1c1cccc([N+](=O)[O-])c1 :: 67.3
4) CC(C)COC(=O)COC(=O)OCCOCCOC(=O)OCC(=O)OCC(C)C :: 104

Q. Field request: growth | item: c1ncc2[nH]cnc2n1
A. 105

Q. Which growth value belongs to CCOC(=O)/C(C#N)=C/c1cccc(C)c1 ?
A. 103

Q. # query: growth of entry CC1SC(N)=NC1=O (stereo unspecified)
A. 110

====

System: MALME-3M melanoma
Test: NCI-60 one-dose screen, 48 h (100 = growth as untreated, 0 = no growth, -100 = all killed)
Details: 10 µM
About 83,000 compounds went through this panel and 20% of them were active in at least one assay; those are over-represented in the sample as a whole.
Below, each entry is listed with its recorded growth.
Provide the reading as a plain figure in %.

1. O=[N+]([O-])c1ccc(O)c(S(=O)(=O)O)c1 :: 127

Q. Can you look up the measured growth of CCOc1ccc(/C=C/C(=O)c2ccccc2)cc1 for me?
A. 108

Q. May I ask what growth has been recorded for O=c1cc(-c2ccccc2)[nH]c2c1CCCC2 ?
A. 31.6

Q. Give the measured growth of OC1CCCc2ccccc21 (configuration not stated) .
A. 78.8

Q. Reported growth, molecule CC(CC(=O)c1ccccc1)c1ccccc1 (configuration not stated) : ____
A. 93

Q. Query: growth; subject: CC(O)COc1ccc(-c2ccccc2)cc1 (configuration not stated)
A. 115

Q. For the molecule shown here, CCCC[P+](c1ccccc1)(c1ccccc1)c1ccccc1 , give the reported growth.
A. 41

====

Listed here are molecules together with their documented growth.
Test system: TK-10 renal
Assay: NCI-60 one-dose screen, 48 h (100 = growth as untreated, 0 = no growth, -100 = all killed)
Conditions: 10 µM unless noted
The panel holds about 83,000 compounds, 20% with a hit somewhere; the sample as a whole holds those more often.
Your answer is read as %, so omit the unit and give the number.

Below are worked cases with known answers.
1) CN(C)Cc1cc(C(C)(C)CC(C)(C)C)ccc1O :: 99.8
2) O=[N+]([O-])c1ccc(-c2ncc(-c3ccc(Br)cc3)o2)cc1 :: 108
3) COc1cc(CCN=Cc2ccccc2O)c([N+](=O)[O-])cc1OC :: 96.9

Q. What value of measured growth is listed for COc1cccc(COC(=O)Nc2ccccc2)c1OC ?
A. 107

Q. Quick one: growth of Oc1ccc(N=Nc2ccc(Br)cc2)c(O)c1 ?
A. 39.2

Q. Could you share which growth value was measured for CC(=O)OCCO ?
A. 114

Q. Please give the measured growth for this molecule: CCCCNC(=O)C(=O)NCCCC
A. 96.4

Q. Return reported growth; argument: O=[N+]([O-])c1cccc(C(F)(F)F)c1
A. 108

Q. Fill in: growth of O=C(Nc1cc(-c2ccccc2)[nH]n1)c1ccc(Cl)cc1 is ___
A. 66.6

Q. Returns the measured growth for the input molecule. Input: CCCOC(=O)C(O)c1ccccc1 (stereo not drawn)
A. 106

Q. Quick check: growth of CC1(C)S(=O)(=O)OCCOS1(=O)=O ?
A. 93.2

Q. Name the reported growth value associated with the molecule COc1cc(OC)c2ccc(=O)oc2c1
A. 101

====

System: 786-0 renal
Assay: NCI-60 one-dose screen, 48 h
Conditions: 10 µM
About 83,000 compounds went through this panel and 20% of them were active in at least one assay; those are over-represented in the sample as a whole. The source made the active and inactive calls. The calls were made as follows: active = growth percent below 10; inactive = the rest.
Choose one outcome from this list and give only that: yes (1) = active, no (0) = inactive

Example entries and their recorded answers appear below.
1. CC1=C(/C=C/C(C)=C/C=C/C(C)=C/CO)C(C)(C)CCC1 :: no (0)
2. C#C[C@H]1CCCCCC1O (stereo not given in full) :: no (0)
3. Cc1ccc(CCCC(=O)O)c(C)c1 :: no (0)

Q. Which outcome was entered for the compound C#CCSc1nnnn1-c1ccc(Br)c(C)c1 in this test?
A. no (0)

Q. I'd appreciate the recorded outcome for O=C1OC(=O)C2C1C1(Cl)C(Cl)=C(Cl)C2(Cl)C2C(=O)OC(=O)C21 (stereo not given) from this test.
A. no (0)

====

Test system: PC-3 prostate
Assay: NCI-60 one-dose screen, 48 h (100 = growth as untreated, 0 = no growth, -100 = all killed)
Conditions: 10 µM
The panel holds about 83,000 compounds, 20% with a hit somewhere; the sample as a whole holds those more often.
growth by entry:
Field: numeric (%). Do not append units.

Worked cases, growth given:
1. CC1CCC2C(C)(C)C3CC12CC1OC13C (stereo not drawn) :: 99.5
2. COc1cc2nc3cc([N+](=O)[O-])ccc3c(Cl)c2cc1OC :: 90.9
3. CC12CC3CC1C(C(=O)O2)C3C(=O)O (stereo not drawn) :: 101
4. CC(C)OC(C(=O)O)c1ccccc1 (stereo not drawn) :: 82.9
5. Nc1ccc(CC(=O)O)c(N)c1 :: 101
6. Cc1cccc(CO)c1 :: 104
7. S=c1[nH]ccn1-c1ccccc1Cl :: 95.2
8. N#CSc1cc(S(N)(=O)=O)ccc1N :: 109
9. CC(C)(N)COS(=O)(=O)O :: 95.9
10. NCC(=O)CCC(=O)O :: 100

Q. Fill in the blank: the reported growth of COc1cc(CCN=Cc2ccccc2O)c([N+](=O)[O-])cc1OC is ____.
A. 98.9

Q. Which growth is reported for this compound? CCn1c(=O)n(C)c2c(=O)n(C)c(=O)n(C)c21
A. 97.4

Q. Looking for the measured growth of CC1SC(N)=NC1=O (stereo not drawn) , can you help?
A. 106

Q. Using the record for CC(=O)OCC1=CC2OC(=O)C3=COC(OC4OC(CO)C(O)C(O)C4O)C1C32 (stereo not drawn) , report its growth.
A. 110

Q. I have this compound here, COc1cc2c(cc1O)CC[C@@H]1C2CC[C@@]2(C)C1CC[C@@H]2O (stereo partly drawn) , and I need its recorded growth.
A. 19.7

Q. Suppose we examine the compound COC(=O)c1ccc(C(C)C)cc1 ; what growth value has been reported?
A. 90.6

Q. Quick one: growth of O=[N+]([O-])c1ccc(/C=C/C=C/c2ccccc2)c(Cl)c1 ?
A. 94.1

Q. Requested read-out: growth. Entry: c1ccc2c(c1)Sc1ccccc1S2
A. 91.4

Q. Suppose we examine the compound CC(C)(C)n1nc(C2CC2)c(Br)c1NC(=O)c1ccccc1F ; what growth value has been reported?
A. 91.5

Q. What measured growth goes with CN(C)CCN(C)CC(C)(C)C(=O)/C=C/c1ccc(Cl)cc1 ?
A. -4.75

Q. # get_value(readout='growth', item= CCN(CC)C(=O)/C=C(/C)c1ccccc1 )
A. 93.4

Q. Suppose we examine the compound CCOc1ccc(/C=C/C(=O)c2ccccc2)cc1 ; what growth value has been reported?
A. 73.7

Q. // query growth value for entry CC(C)C(C#N)(C(C)C)C(C)C
A. 92.7

The reported measurements were obtained from PubChem BioAssay (NCI).
